Entries and their IC50
- Tested on: NCI-H446
- assayComment: Cytotoxicity against human NCI-H446 cells by SRB assay
- Type: functional, cell-based
Where a name gives a salt, the structure may show the parent alone.
Number only, in µM; omit the unit.

// below: answered compounds
{"compound": "COc1cc(O)ccc1N/N=C1\\C(=O)C=C(Cc2ccccc2)NC1=O", "IC50, µM": 4.1}
{"compound": "COc1cccc2c1C(=O)c1c(O)c3c(c(O)c1C2=O)C[C@@](O)(C(=O)CO)C[C@@H]3O[C@H]1C[C@H](N)[C@H](O)[C@H](C)O1 [DOXORUBICIN HYDROCHLORIDE]", "IC50, µM": 0.6}

Req: Given COc1cc(O)ccc1N/N=C1/C(=O)[C@@](C)(OC(=O)c2c(C)cc(O)cc2O)C(=O)C2=C1C=C(/C=C/C(=O)O)OC2 , state its recorded IC50.
Resp: 10.2

====

- Test system: Bacillus subtilis
- assayComment: Antibacterial activity against Bacillus subtilis ATCC 6051 assessed as bacterial growth inhibition
- Format: functional
observable: MIC (µg/mL)
Number only, in µg/mL; omit the unit.

// below: answered molecules
{"molecule": "COc1cc(O)ccc1N/N=C1/C=Cc2cccc(O)c2C1=O", "endpointUnit": "µg/mL", "MIC": 128}
{"molecule": "O=C(O)c1cn(C2CC2)c2cc(N3CCNCC3)c(F)cc2c1=O", "endpointUnit": "µg/mL", "MIC": 0.63}

# evaluate next
Req: Given COc1cc(O)ccc1N/N=C1/C=Cc2cc(O)cc(O)c2C1=O , state its recorded MIC.
Resp: 128

====

- System: Staphylococcus
- assayComment: Antibacterial activity against methicillin-resistant coagulase-negative Staphylococcus assessed as bacterial growth inhibition
- Type: functional
observable: MIC (mg/L)
Number only, in mg/L; omit the unit.

// below: answered compounds
{"molecule": "COc1cc(O)ccc1N/N=C1/C=Cc2cccc(O)c2C1=O", "endpointUnit": "mg/L", "numericValue": 128}
{"molecule": "COc1cc(O)ccc1N/N=C1/C=Cc2cc(O)cc(O)c2C1=O", "endpointUnit": "mg/L", "numericValue": 64}

# evaluate next
Req: Given O=C(O)c1cn(C2CC2)c2cc(N3CCNCC3)c(F)cc2c1=O , state its recorded MIC.
Resp: 4

====

Entries and their IC50
- System: ASPC1
- assayComment: Cytotoxicity against human ASPC1 cells by SRB assay
- Type: functional, cell-based
Where a name gives a salt, the structure may show the parent alone.

// below: answered compounds
{"compound": "COc1cccc2c1C(=O)c1c(O)c3c(c(O)c1C2=O)C[C@@](O)(C(=O)CO)C[C@@H]3O[C@H]1C[C@H](N)[C@H](O)[C@H](C)O1 [DOXORUBICIN HYDROCHLORIDE]", "IC50": "0.21 µM"}
{"compound": "COc1cc(O)ccc1N/N=C1/C=Cc2cccc(O)c2C1=O", "IC50": "> 15 µM"}
{"compound": "COc1cc(O)ccc1N/N=C1/C=Cc2cc(O)cc(O)c2C1=O", "IC50": "> 15 µM"}
{"compound": "COc1cc(O)ccc1N/N=C1\\C(=O)C=C(Cc2ccccc2)NC1=O", "IC50": "> 15 µM"}

# evaluate next
Req: Given COc1cc(O)ccc1N/N=C1/C(=O)[C@@](C)(OC(=O)c2c(C)cc(O)cc2O)C(=O)C2=C1C=C(/C=C/C(=O)O)OC2 , state its recorded IC50.
Resp: > 15 µM
